These entries and their values trace back to patent EP4635500A1.

# Test system: Klebsiella pneumoniae
# TEST_METHOD_NOTES: MIC, broth microdilution, standard strains and Japanese clinical isolates (Example 5, Table 4)
# Assay type: cell-based
# EXPERIMENTAL_SETUP: ATCCBAA1904, KUB3999 Klebsiella pneumoniae ATCC BAA-1904, KPC-3
Please go through the items and note down their MIC.
Answers are plain numbers, in µg/mL.

// known answers, use as guide
CC(C)(O/N=C(\C(=O)N[C@@H]1C(=O)N2C(C(=O)[O-])=C(C[N+]3(CCNC(=O)c4ccc(O)c(O)c4Cl)CCCC3)CS[C@H]12)c1csc(N)n1)C(=O)O
1
C[C@@H](O)[C@H]1C(=O)N2C(C(=O)O)=C(SCCN=CN)C[C@H]12
4
C[C@@H](O)[C@H]1C(=O)N2C(C(=O)O)=C(S[C@@H]3CN[C@H](C(=O)N(C)C)C3)[C@H](C)[C@H]12
2

As a next step, examine the compound that follows.
Enquiry: Name the reported MIC value associated with the compound `CC(C)(O/N=C(\C(=O)N[C@@H]1C(=O)N2C(C(=O)[O-])=C(C[n+]3ccccc3)CS[C@H]12)c1csc(N)n1)C(=O)O`
Return: 16
